Provide the reported koff of each item.
Molecular target: T1, human PTK7-Fc protein antigen (human, UniProt Q13308 31-704)
T1 construct: extracellular domain; also called human PTK7 extracellular segment protein; not shown: Fc from the pFUSE-IgG recombinant plasmid
T1 sequence (looked up): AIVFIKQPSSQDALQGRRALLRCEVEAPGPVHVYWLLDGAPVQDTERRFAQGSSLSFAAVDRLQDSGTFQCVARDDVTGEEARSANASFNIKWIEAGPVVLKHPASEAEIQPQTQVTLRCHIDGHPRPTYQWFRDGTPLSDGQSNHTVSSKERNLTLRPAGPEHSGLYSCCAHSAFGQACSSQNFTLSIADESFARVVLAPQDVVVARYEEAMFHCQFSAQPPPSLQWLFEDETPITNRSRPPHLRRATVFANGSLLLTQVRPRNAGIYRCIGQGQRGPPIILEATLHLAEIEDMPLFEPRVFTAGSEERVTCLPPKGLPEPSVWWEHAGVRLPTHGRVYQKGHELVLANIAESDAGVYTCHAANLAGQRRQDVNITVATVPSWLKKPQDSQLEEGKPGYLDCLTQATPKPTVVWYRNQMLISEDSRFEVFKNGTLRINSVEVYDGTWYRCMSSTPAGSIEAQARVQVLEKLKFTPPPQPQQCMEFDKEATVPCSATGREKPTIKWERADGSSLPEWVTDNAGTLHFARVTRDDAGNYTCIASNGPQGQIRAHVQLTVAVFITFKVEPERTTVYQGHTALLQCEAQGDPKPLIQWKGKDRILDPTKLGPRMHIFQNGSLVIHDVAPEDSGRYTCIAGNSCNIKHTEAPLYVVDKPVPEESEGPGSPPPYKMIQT
Assay: SPR (Biacore 8K), human PTK7-Fc amine-coupled on CM-5 chip, VHH as analyte
Provide the reading as a plain figure in s⁻¹.

Ask: Supply koff value. Item: MY2132-5-51 (VHH, Camel VHH expressed in E. coli WK6 and purified on a nickel column; also called MY2132-5-51 VHH; anti-PTK7 single domain antibody) VHH: QVQLQESGGGLVQPGGSLTLACAASGFAFSSYAMRWVRQAPGKGLEGVSSISAGGDETYYADFAKGRFTISRDNAKNTLYLQLNSLKTEDTAMYYCAKGDRNSPRYSSWPITPVGQGTQVTVSS
Reply: 0.00166

Ask: Supply koff value. Item: MY2132-4-22 (VHH, Camel VHH expressed in E. coli WK6 and purified on a nickel column; also called MY2132-4-22 VHH; anti-PTK7 single domain antibody) VHH: QVQLQESGGGSVQAGGSLRLSCTASGFTFDDYDMVWYRQAPGNEYEWLSTVSRGGNLYYADSVKGRFTISRDNAKNTVYLNMSRVKPEDTAVYYCAADLRSVPSTYRARTCRGRYCRDYWGQGTQVTVSS
Reply: 0.0322

Ask: Supply koff value. Item: MY2132-4-79 (VHH, Camel VHH expressed in E. coli WK6 and purified on a nickel column; also called MY2132-4-79 VHH; anti-PTK7 single domain antibody) VHH: QVQLQESGGGSVQAGGSLRLSCAASGYIWSRYCMGWFRQAPGKAREGVARFNSDGNTRYVDSVKGRFTISRDNAKNTLYLQMNNLQPEDTARYYCAADPRFDCGYDAVFNPTHFPYWGQGTQVTVSS
Reply: 0.000358

Ask: Supply koff value. Item: MY2132-4-55 (VHH, Camel VHH expressed in E. coli WK6 and purified on a nickel column; also called MY2132-4-55 VHH; anti-PTK7 single domain antibody) VHH: QVQLQESGGGSVQAGGSLRLSCAASGYIWSRYCMGWFRQAPGKAREGVARFNSDGNTRYVDSVKGRFTISRDNAKNTLYLQMNNLQPEDTARYYCAADPRFDCGYDAVFNPTHFPYWGRGTQVTVSS
Reply: 0.000314
